- Target Desc: T1, human ROR1 Frizzled domain (hROR1-Fz) (human, UniProt Q01973 165-305)
- T1 construct: Acro Biosystems, made in HEK293
- T1 sequence (Q01973 other isoform, or with tags, fused parts or gaps): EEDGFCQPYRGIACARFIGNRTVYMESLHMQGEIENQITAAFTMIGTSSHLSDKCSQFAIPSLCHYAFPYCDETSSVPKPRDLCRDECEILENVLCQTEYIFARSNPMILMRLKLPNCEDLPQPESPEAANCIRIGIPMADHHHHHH
- Protocol Notes: SPR Biacore, IgG on anti-Fc, ROR1-Fz analyte
Parameter Measured: koff (s⁻¹)
# output: bare number, implied unit s⁻¹

SRP2196-B02 (antibody, V domains shown, His/FLAG-tagged IgG1) VH: EVQLVESGGGLVQPGGSLRLSCAASGFNITQYYIHWVRQAPGKGLEWVGYISPNSGQTYDADSVKGRFTISADTSKNTAYLQMNSLRAEDTAVYYCARDSRRYVRSWDYWGQGTLVTVSS VL: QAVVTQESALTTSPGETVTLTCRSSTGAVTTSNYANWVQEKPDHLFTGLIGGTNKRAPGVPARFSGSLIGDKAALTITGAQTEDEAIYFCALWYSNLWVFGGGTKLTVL	0.000227
SRP2196-C03 (antibody, V domains shown, His/FLAG-tagged IgG1) VH: EVQLVESGGGLVQPGGSLRLSCAASGFNITGYYIHWVRQAPGKGLEWVGQISPNSGSTYSADSVKGRFTISADTSKNTAYLQMSSLRAEDTAVYYCARDSRRYVLSWDYWGQGTLVTVSS VL: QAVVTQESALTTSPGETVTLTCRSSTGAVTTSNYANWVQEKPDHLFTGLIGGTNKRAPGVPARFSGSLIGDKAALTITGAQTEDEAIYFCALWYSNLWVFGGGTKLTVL	0.000461

Now look at this one.
Q: Given the entry SRP2196-C02 (antibody, V domains shown, His/FLAG-tagged IgG1) VH: EVQLVESGGGLVQPGGSLRLSCAASGFNITGYHIHWVRQAPGKGLEWVGFISPNSGWTYSADSVKGRFTISADTSKNTAYLQMNSLRAEDTAVYYCARDSRRYVRPFDYWGQGTLVTVSS VL: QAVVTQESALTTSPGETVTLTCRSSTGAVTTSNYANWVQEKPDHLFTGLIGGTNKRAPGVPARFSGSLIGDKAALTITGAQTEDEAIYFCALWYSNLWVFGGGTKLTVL , report its measured koff.
A: 0.00036
